Please go through the items and note down their GI50.
# Test system: UO-31
# EXPERIMENTAL PROTOCOL: NCI tumour cell line growth inhibition, 48 h
Active and inactive are the calls of the source. Cut-off read from the data, not from the text of the source: active = GI50 up to about 1.1 µM and inactive = higher.

Incoming: What value of GI50 has been recorded for this entry: C=CCOCCCCC(C(C)=O)C(=O)OC (stereo not given)
Outgoing: > 100 µM (inactive)

Incoming: I am curious: what GI50 value has been reported for `O=C(N/C(=C\NC1=NCCS1)C(=O)N1CSC[C@@H]1C(=O)O)c1ccccc1` ?
Outgoing: > 100 µM (inactive)

Incoming: Returns the measured GI50 for the input compound. Input: `CCN(CC)c1ccc2cc(-c3csc(C)n3)c(=O)oc2c1`
Outgoing: > 100 µM (inactive)

Incoming: Fill in: GI50 of `O=C(Nc1ccccc1C(=O)NCCCO)/C(=C/c1ccccc1O)NC(=O)c1ccccc1` is ___
Outgoing: 20.7 µM (inactive)

Incoming: Record request: GI50 value, item `Nc1nc2[nH]cnc2c(=S)[nH]1`
Outgoing: 1.56 µM (inactive)

Incoming: Report GI50 for `Cc1ccc(SCC(=O)C2=C(O)CCCC2=O)cc1` please.
Outgoing: > 100 µM (inactive)

Incoming: # input compound: `CCN(CC)CCNc1n[n+]([O-])c2cc([N+](=O)[O-])ccc2[n+]1[O-]` ; wanted: its GI50
Outgoing: 2.94 µM (inactive)

Incoming: For `O=[N+]([O-])c1ccc(NN=C2CN3CCN(C2)c2ccccc23)c([N+](=O)[O-])c1` , what is its reported GI50?
Outgoing: > 100 µM (inactive)

Incoming: Name the reported GI50 value associated with the compound `c1ccc(CCN2CCc3[nH]c4ccccc4c3C2)cc1`
Outgoing: 13.6 µM (inactive)

Incoming: For `COc1cc(OC)c(/C=C\c2cc(/C=C/c3c(OC)cc(OC)cc3OC)c3ccccc3[n+]2C)c(OC)c1` , what is its reported GI50?
Outgoing: 7.16 µM (inactive)

----------
# System: TK-10
# EXPERIMENTAL PROTOCOL: NCI tumour cell line growth inhibition, 48 h
Activity calls are given as the source filed them. No stated cut-off is given here; in the data, active = GI50 up to about 1.1 µM and inactive = higher.
OBSERVED PROPERTY: GI50

Incoming: Entry `NCCOc1ccc(/C(=C(/Cl)c2ccccc2)c2ccccc2)cc1` , system TK-10: what GI50 was measured?
Outgoing: 12.9 µM (inactive)

Incoming: Request body: readout GI50, system TK-10, query `C[C@]12CC[C@H]3[C@@H](CC=C4C[C@@H](O)CC[C@@]43C)[C@@H]1C/C(=C\c1ccncc1)[C@@H]2O` . Return the value.
Outgoing: 39.3 µM (inactive)

Incoming: Under TK-10: GI50 value of C/C=C(\C)C(=O)OC1CC(OC(C)=O)C2(C(=O)OC)COC3C2C1(C)C1C2(C(=O)OC)OCC1(C3O)C1(O)C3CC(C4(O)C=COC4O3)C1(C)O2 (stereo not given) ?
Outgoing: > 100 µM (inactive)

Incoming: Return GI50 measured with TK-10 given this compound: `Cn1c(=O)c2c(nc(NCCNc3nc4c(c(=O)n(C)c(=O)n4C)n3C)n2C)n(C)c1=O`
Outgoing: > 100 µM (inactive)

Incoming: Find the measured GI50: item OCC1CCCC1O (stereo not given) , target or system TK-10.
Outgoing: > 100 µM (inactive)

----------
# System: BT-549
# EXPERIMENTAL PROTOCOL: NCI tumour cell line growth inhibition, 48 h
The source made the active and inactive calls. Cut-off read from the data, not from the text of the source: active = GI50 up to about 1.1 µM and inactive = higher.
For each entry below, report its GI50 value.

Incoming: Using the record for CC(=O)OC1COC(N2c3ccccc3[C@@H]3CCc4c([nH]c5ccccc45)[C@@H]32)C(OC(C)=O)C1OC(C)=O.CC(=O)OC1COC(N2c3ccccc3[C@H]3CCc4c([nH]c5ccccc45)[C@H]32)C(OC(C)=O)C1OC(C)=O (stereo partly drawn) , report its GI50.
Outgoing: 56.9 µM (inactive)

Incoming: Fill in: GI50 of CCCOC(=O)NC(C)C(=O)NC(CCC(=O)NC(CCCC(N)C(=O)O)C(=O)NC(C)C(=O)O)C(=O)O (stereo not drawn) is ___
Outgoing: 20.7 µM (inactive)

Incoming: I am curious: what GI50 value has been reported for `CCOc1ncn(-c2ccc(NC(=S)Nc3ncccn3)cc2)n1` ?
Outgoing: 20.8 µM (inactive)

Incoming: Which GI50 value belongs to `Nc1cccc(/C=C/C(=O)N2CCN(CCOC(c3ccccc3)c3ccccc3)CC2)c1` ?
Outgoing: 15 µM (inactive)

Incoming: # input compound: `O=C1OC(c2ccc([N+](=O)[O-])cc2)=N/C1=C\c1ccc(O)cc1` ; wanted: its GI50
Outgoing: > 100 µM (inactive)

Incoming: What does the data say about its GI50? Entry: `O=S(=O)(CCn1c(Sc2ccccc2)c(Sc2ccccc2)c2ccccc21)c1ccccc1`
Outgoing: > 100 µM (inactive)

Incoming: Could you share which GI50 value was measured for OCC1C(O)C(O)[C@@H]2SCCN12 (stereo partly drawn) ?
Outgoing: > 100 µM (inactive)

Incoming: Please look up its GI50: Cn1cnc2c(NCc3ccccc3)nc(NCCO)nc21 [OLOMOUCINE]
Outgoing: 53.1 µM (inactive)

----------
# Tested on: OVCAR-4
# EXPERIMENTAL PROTOCOL: NCI tumour cell line growth inhibition, 48 h
Calls of active or inactive are those of the source. Rule as the data show it: active = GI50 up to about 1.1 µM and inactive = higher.
Mark one answer only. Choices: yes = active, no = inactive

Incoming: Returns: the outcome recorded for `O=C(CCc1ccccc1)n1cccc1CO` in this assay.
Outgoing: no

Incoming: Answer briefly: the call reported for `C/C(=N/NC(=S)NCCc1ccccn1)c1cnccn1` in this assay.
Outgoing: no

Incoming: I would be grateful if you could indicate the recorded call for `Cc1ccc2c(c1C)-c1c(ccc(C)c1C)C(=O)C2=O` .
Outgoing: yes

Incoming: Can you look up the reported call for CCOC(=O)C1=C(C)N(CC(C)C)C2(O)C(OC)CC(=O)C3C(=O)N(c4ccccc4)C(=O)C132 (stereo not given) for me?
Outgoing: no

Incoming: Record lookup: outcome of this test for `CCCCSC1=N/C(=C\c2ccc(N(C)C)cc2)C(Cl)=N1` ?
Outgoing: no

----------
# System: SF-539
# EXPERIMENTAL PROTOCOL: NCI tumour cell line growth inhibition, 48 h
Calls of active or inactive are those of the source. No stated cut-off is given here; in the data, active = GI50 up to about 1.1 µM and inactive = higher.
Pick from Yes (active), No (inactive) when you respond.

Incoming: Recorded call for `CC1=C[C@@H](C)C[C@]2(C)CC[C@H](O2)[C@]23CC[C@](CO)(C[C@H](O2)[C@@H]2O[C@@](C)(CC2=O)[C@@H](O)[C@H]2CC[C@@]4(CCC[C@@H](O4)[C@H](C)C(=O)O[C@H]4C[C@H]([C@]5(O)OCC[C@H](C)[C@@H]5O)O[C@H]4C=C1)O2)O3` ?
Outgoing: Yes

Incoming: Hey, what did the test say about `CN(C)c1n/c(=N/c2ncn[nH]2)ss1` ?
Outgoing: No

Incoming: Short answer needed: outcome of this test for Cc1ccc(NC(=O)C2C3C=CC(O3)C2C(=O)O)cc1 (configuration not stated) ?
Outgoing: No

Incoming: For O=C(O)c1ccc(C2COc3ccc(Cl)cc3C2)cc1 (configuration not stated) , what call appears in the results of this test?
Outgoing: No

Incoming: Tell me the recorded outcome of this test for `O=C(CBr)N1CCC2(CC1)SSC1(CCN(C(=O)CBr)CC1)S2` .
Outgoing: No

Incoming: For `CCCCCCCCCCCCCCCC(=O)OCCOCCOCCOCc1ccccc1` , which call appears in the assay record?
Outgoing: No

Incoming: Check the results log: what was the call for `O=c1c2cc(Br)ccc2ncn1COCc1ccccc1` ?
Outgoing: No

Incoming: Just curious, what result did `Clc1ccccc1C(n1cc(Br)cn1)n1cc(Br)cn1` get here?
Outgoing: No

Incoming: # fetch the recorded call for CCC1(c2ccncc2)CCC(=O)NC1=O (configuration not stated) [ROGLETIMIDE] here
Outgoing: No

Incoming: Recorded test call requested for CC(=O)C1CC=C(C)CC1 (configuration not stated)
Outgoing: No

Incoming: Check the results log: what was the call for `COc1cc(/C=C/C(=O)Oc2ccccc2)ccc1C(=O)O/C=C/c1ccccc1` ?
Outgoing: No

Incoming: Called result for CCCCNCCCNCCCNC(=O)c1csc(-c2csc(CCNC(=O)C(NC(=O)C(C)C(O)C(C)NC(=O)C(NC(=O)c3nc(C(CC(N)=O)NCC(N)C(N)=O)nc(N)c3C)C(OC3OC(CO)C(O)C(O)C3OC3OC(CO)C(O)C(OC(N)=O)C3O)c3c[nH]cn3)C(C)O)n2)n1 (configuration not stated)
Outgoing: Yes

Incoming: Any idea what this test logged for `CN(/N=C/c1cccc2cccnc12)c1c([N+](=O)[O-])cc([N+](=O)[O-])cc1[N+](=O)[O-]` ?
Outgoing: No

Incoming: Status in this test for COc1ccc(-c2nc3cc(C(F)(F)F)ccc3n2CC2CCCN3CCCCC23)cc1 (configuration not stated) ?
Outgoing: No

Incoming: Per the assay record, what outcome was assigned to `Cc1ccc(/N=N/C(=N\c2ccc(F)cc2)c2ccc(N(CCC#N)CCC#N)cc2)cc1` ?
Outgoing: No

Incoming: Recorded test call requested for O=C(Nc1cccc(NC(=O)C(=O)C2CCC3=C(Sc4ccccc4N3)C2=O)n1)C(=O)C1CCC2=C(Sc3ccccc3N2)C1=O (configuration not stated)
Outgoing: No

Incoming: Which outcome was assigned to `c1ccncc1` in this test?
Outgoing: No

Incoming: What call does the record list for `O=C1Cc2ccccc2CCc2ccsc21` ?
Outgoing: No

Incoming: Please share the test call associated with `NCCCCCCNCc1cccc2ccccc12` .
Outgoing: No

Incoming: Can you look up the reported call for `CN1CCC(=O)/C(=C/c2ccccc2)C1` for me?
Outgoing: No

Incoming: For `CC(C)Sc1nncc(/C(N)=N/O)n1` , which call appears in the assay record?
Outgoing: No

Incoming: Per the records of this test, what outcome belongs to `CCCCOc1c(C(=O)O)cc(Br)cc1C(=O)O` ?
Outgoing: No
